Sourced from patent US20110044938A1

# Tested on: subclones of RKO colon adenocarcinoma cells (RKOp27 or RKOp21) arrested by Ponasterone A
# EXPERIMENTAL DETAILS: Alamar Blue cell viability assay, cell cycle specific mode of action: cells arrested by ectopic p27Kip1 induced by Ponasterone A versus proliferating cells
# Type: cell-based
# PROTOCOL CONDITIONS: Homo sapiens, RKO p27 induced (arrested) cells, 10 μM Ponasterone A, 72 hours, value = class bound given in Table A, read-out: −logIC50 RKO p27 induced (arrested) (converted)
MEASURED ATTRIBUTE: IC50

Fill in: subclones of RKO colon adenocarcinoma cells (RKOp27 or RKOp21) arrested by Ponasterone A IC50 for Cc1cc(CNC(=O)OCC2CCc3c(sc(NC(=O)CC(C)c4ccccc4)c3C#N)C2)no1 (stereo not shown) = ≥ 50.1 µM

// IC50 (subclones of RKO colon adenocarcinoma cells (RKOp27 or RKOp21) arrested by Ponasterone A) for Cn1cnc(CNC(=O)OC2CCc3c(sc(NC(=O)/C=C/c4cccnc4)c3C#N)C2)c1 (stereo not shown) = ≥ 100 µM

Noted IC50 for COc1cccc(C(C)CC(=O)Nc2sc3c(c2C#N)CCC(OC(=O)NCc2cc(C)no2)C3)c1 (stereo not shown) , tested on subclones of RKO colon adenocarcinoma cells (RKOp27 or RKOp21) arrested by Ponasterone A: ≥ 100 µM

// molecule N#Cc1c(NC(=O)/C=C/c2cccnc2)sc2c1CCC(COC(=O)N1CC[C@H](O)C1)C2 (stereo partly shown) , assay subclones of RKO colon adenocarcinoma cells (RKOp27 or RKOp21) arrested by Ponasterone A, IC50 value: ≥ 100 µM

Fill in: subclones of RKO colon adenocarcinoma cells (RKOp27 or RKOp21) arrested by Ponasterone A IC50 for COc1cccc(C(C)CC(=O)Nc2sc3c(c2C#N)CCC(COC(=O)NCc2cn(C)nc2C)C3)c1 (stereo not shown) = ≥ 50.1 µM

Here COc1cccc(C(C)CC(=O)Nc2sc3c(c2C#N)CCC(OC(=O)NCc2ccncc2)C3)c1 (stereo not shown) was tested on subclones of RKO colon adenocarcinoma cells (RKOp27 or RKOp21) arrested by Ponasterone A, and its IC50 came to ≥ 100 µM

Summary line: N#Cc1c(NC(=O)/C=C/c2cccnc2)sc2c1CC[C@H](COC(=O)N1CCC(O)CC1)C2 [Example 114a] , subclones of RKO colon adenocarcinoma cells (RKOp27 or RKOp21) arrested by Ponasterone A, reported IC50 = ≥ 100 µM

I looked up CCOc1ccccc1CCC(=O)Nc1sc2c(c1C#N)CCC(COC(=O)OCc1cncs1)C2 (stereo not shown) and its IC50 for subclones of RKO colon adenocarcinoma cells (RKOp27 or RKOp21) arrested by Ponasterone A was ≥ 100 µM

Hey, subclones of RKO colon adenocarcinoma cells (RKOp27 or RKOp21) arrested by Ponasterone A data for N#Cc1c(NC(=O)/C=C/c2cccnc2)sc2c1CCC(COC(=O)N1CCOCC1)C2 (stereo not shown) : IC50 came out at ≥ 100 µM

Case COc1cccc(C(C)CC(=O)Nc2sc3c(c2C#N)CCC(OC(=O)NC2CCOCC2)C3)c1 (stereo not shown) , subclones of RKO colon adenocarcinoma cells (RKOp27 or RKOp21) arrested by Ponasterone A, IC50 recorded as ≥ 100 µM

Kindly note: subclones of RKO colon adenocarcinoma cells (RKOp27 or RKOp21) arrested by Ponasterone A, N#Cc1c(NC(=O)/C=C/c2cccnc2)sc2c1CCC(COC(=O)N1CCCO1)C2 (stereo not shown) , IC50 value reported: ≥ 100 µM

Result for N#Cc1c(NC(=O)/C=C/c2cccnc2)sc2c1CCC(OC(=O)NC1COC1)C2 (stereo not shown) , tested on subclones of RKO colon adenocarcinoma cells (RKOp27 or RKOp21) arrested by Ponasterone A, IC50: ≥ 100 µM

The measured IC50 that COc1cccc(C(C)CC(=O)Nc2sc3c(c2C#N)CCC(COC(=O)NCc2cc(C)no2)C3)c1 (stereo not shown) showed for subclones of RKO colon adenocarcinoma cells (RKOp27 or RKOp21) arrested by Ponasterone A is ≥ 100 µM
